- measurementTarget: human FAP (hFAP) (Homo sapiens)
- Sequence (Q12884 26-760 limits assumed): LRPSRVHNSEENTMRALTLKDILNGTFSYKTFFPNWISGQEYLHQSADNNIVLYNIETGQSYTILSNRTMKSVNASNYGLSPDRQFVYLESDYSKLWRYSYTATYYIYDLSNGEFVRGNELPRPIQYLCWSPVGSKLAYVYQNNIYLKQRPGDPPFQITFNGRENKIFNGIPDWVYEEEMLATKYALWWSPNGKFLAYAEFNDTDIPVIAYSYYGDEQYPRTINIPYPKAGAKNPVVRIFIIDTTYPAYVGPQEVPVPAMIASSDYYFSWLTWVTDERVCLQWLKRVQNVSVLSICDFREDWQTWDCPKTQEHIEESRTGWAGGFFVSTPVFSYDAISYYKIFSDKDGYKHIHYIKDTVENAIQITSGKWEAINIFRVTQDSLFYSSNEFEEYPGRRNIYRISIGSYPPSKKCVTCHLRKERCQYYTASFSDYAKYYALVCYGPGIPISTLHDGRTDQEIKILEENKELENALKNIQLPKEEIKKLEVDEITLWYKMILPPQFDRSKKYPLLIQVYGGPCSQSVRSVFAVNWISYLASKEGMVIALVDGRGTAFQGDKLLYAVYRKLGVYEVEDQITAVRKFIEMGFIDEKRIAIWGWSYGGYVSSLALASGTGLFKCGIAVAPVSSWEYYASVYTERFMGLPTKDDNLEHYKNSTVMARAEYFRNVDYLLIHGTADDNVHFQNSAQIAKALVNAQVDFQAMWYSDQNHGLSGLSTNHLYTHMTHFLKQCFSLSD
- experimentalDetails: In vitro inhibition assay on human FAP (Z-GP-AMC substrate)
- Assay type: biochemical
- experimentalConditions: 20 μM Z-GP-AMC, 20 nM FAP, pH 7.4, room temperature

compound | unitInfo | IC50
CC1(C)C(/C=C/C2=C(Oc3ccc(S(=O)(=O)O)cc3)C(=C/C=C3/N(CCCCCC(=O)NCC(O)CC(=O)NCCCOc4cccc5c(C(=O)NCC(=O)N6CC(F)(F)C[C@H]6C#N)ccnc45)c4ccc(S(=O)(=O)O)cc4C3(C)C)/CCC2)=[N+](CCCCS(=O)(=O)[O-])c2ccc(S(=O)(=O)O)cc21 (some centres unmarked) | nM | 4.01
N#C[C@@H]1CC(F)(F)CN1C(=O)CNC(=O)c1ccnc2c(OCCCNC(=O)CCC(C(=O)O)N3CCN(CC(=O)O)CCN(CC(=O)O)CCN(CC(=O)O)CC3)cccc12 (some centres unmarked) | nM | 1.5
